Where a name gives a salt, the structure may show the parent alone.
PARAMETER MEASURED: melting point

Solved cases below.
MOLECULE	melting point
N#Cc1ccc(C2C(=O)N(CC3CC3)Cc3cncn32)cc1 (stereo not shown)	146 to 147 °C
Brc1ccc(C2CN(Cc3ccccc3)Cc3cncn32)cc1 (stereo not shown) (as salt: toluene sulfonate)	223 to 225 °C
O=C1C(c2cccc(Br)c2)n2cncc2CN1Cc1ccsc1 (stereo not shown)	43 to 45 °C
C[C@@H](c1ccc(F)cc1)N1Cc2cncn2C(C)(c2ccc(C#N)cc2)C1=O (stereo partly shown)	78 to 82 °C

May I ask what melting point has been recorded for COc1ccc(CN2Cc3cncn3C(c3cccc(Br)c3)C2=O)cc1.Cl (stereo not shown) ? 246 to 248 °C

May I ask what melting point has been recorded for O=C1C(c2ccc(-c3ccccc3)cc2)n2cncc2CN1Cc1ccc(F)cc1 (stereo not shown) ? 189 to 190 °C

May I ask what melting point has been recorded for COC(=O)c1ccc(C2C(=O)N(Cc3ccccc3)Cc3cncn32)cc1.Cl (stereo not shown) ? 236 to 238 °C

May I ask what melting point has been recorded for Cl.O=C1Cn2cncc2CN1Cc1ccccc1 ? 201 to 204 °C

May I ask what melting point has been recorded for Cl.O=C1C(c2ccccc2)n2cncc2CN1Cc1ccccc1 (stereo not shown) ? 249 to 251 °C

May I ask what melting point has been recorded for Cl.O=C1C(c2ccc(Br)cc2)n2cncc2CN1Cc1ccc(Cl)cc1 (stereo not shown) ? 158 to 159 °C

---

Listed here are compounds together with their documented melting point.

COMPOUND	RECORDED RESULT
C[C@@H](c1ccccc1)N1Cc2cncn2C(c2ccc(C#N)cc2)C1=O (single isomer, unassigned; (-)) [Example 62]	157 to 158 °C
C[C@@H](c1ccccc1)N1Cc2cncn2C(c2ccc(Br)cc2)C1=O (single isomer, unassigned; (-)) [Example 61]	167 to 168 °C

Continue with the compound presented below.
May I ask what melting point has been recorded for C[C@@H](c1ccccc1)N1Cc2cncn2C(c2cccc(Br)c2)C1=O (single isomer, unassigned; (-)) [Example 59] ? 55 to 70 °C

---

Listed here are compounds together with their documented melting point.

Solved cases below.
COMPOUND	RECORDED RESULT
COc1ccc(CCN2Cc3cncn3C(c3cccc(Br)c3)C2=O)cc1.Cl (stereo not shown)	202 to 204 °C
Cl.O=C1C(c2cccc(-c3ccc(F)cc3)c2)n2cncc2CN1Cc1ccccc1 (stereo not shown)	235 to 237 °C
Cl.O=C1C(c2cccc(Br)c2)n2cncc2CN1Cc1ccco1 (stereo not shown)	215 to 218 °C
Cl.N#Cc1cccc(C2C(=O)N(CCc3ccc(F)cc3)Cc3cncn32)c1 (stereo not shown)	221 to 223 °C
C[C@H](c1ccccc1)N1Cc2cncn2C(c2ccc(Br)cc2)C1=O (single isomer, unassigned; (+))	147 to 148 °C
COc1ccc(CN2Cc3cncn3C(c3ccc(-c4ccc(Cl)cc4)cc3)C2=O)cc1.Cl (stereo not shown)	270 to 273 °C
Cl.N#Cc1ccc(C2C(=O)N(Cc3ccc(Cl)cc3)Cc3cncn32)cc1 (stereo not shown)	245 to 246 °C
Cl.N#Cc1ccc(C2C(=O)N(CCc3ccc(F)cc3)Cc3cncn32)cc1 (stereo not shown)	160 to 162 °C

May I ask what melting point has been recorded for Cl.O=C1C(c2cccc(Br)c2)n2cncc2CN1Cc1cccc(F)c1 (stereo not shown) ? 240 to 243 °C

May I ask what melting point has been recorded for C=CCN1Cc2cncn2C(c2ccc(C#N)cc2)C1=O (stereo not shown) ? 107 to 109 °C

---

Listed here are compounds together with their documented melting point.

Solved cases below.
COMPOUND	RECORDED RESULT
CN1Cc2cncn2C(c2ccccc2)C1=O.Cl (stereo not shown)	252 to 254 °C
Cl.O=C1C(c2ccc(Br)cc2)n2cncc2CN1Cc1ccc(F)cc1 (stereo not shown)	205 to 207 °C
Cl.O=C1C(c2ccc(Br)cc2)n2cncc2CN1Cc1ccccc1 (stereo not shown)	250 °C (dec.)
CC1(c2ccc(Br)cc2)C(=O)N(CC2CC2)Cc2cncn21.Cl (stereo not shown)	228 to 230 °C
CN1Cc2cncn2C(c2cccc(Br)c2)C1=O.Cl (stereo not shown)	265 °C (dec.)

May I ask what melting point has been recorded for Cl.O=C1C(c2ccc(Br)cc2)n2cncc2CN1Cc1ccc(C(F)(F)F)cc1 (stereo not shown) ? 113 to 114 °C

May I ask what melting point has been recorded for Cc1cccc(CN2Cc3cncn3C(c3cccc(Br)c3)C2=O)c1.Cl (stereo not shown) ? 248 to 249 °C

---

Listed here are compounds together with their documented melting point.

COMPOUND	RECORDED RESULT
O=C1C(c2cccc(Br)c2)n2cncc2CN1Cc1ccncc1 (stereo not shown)	50 to 54 °C
Cl.O=C1C(c2cccc(Br)c2)n2cncc2CN1Cc1ccc(F)cc1 (stereo not shown)	246 to 248 °C
COc1ccc(N2Cc3cncn3C(c3ccc(Br)cc3)C2=O)cc1.Cl (stereo not shown)	149 to 150 °C
Cl.O=C1C(c2cccc(Br)c2)n2cncc2CN1Cc1ccc(C(F)(F)F)cc1 (stereo not shown)	269 to 271 °C
Cl.O=C1C(c2ccc(-c3ccsc3)cc2)n2cncc2CN1CC1CC1 (stereo not shown)	217 to 219 °C

May I ask what melting point has been recorded for Cl.O=C1C(c2cccc(Br)c2)n2cncc2CN1CCc1cccc(Cl)c1 (stereo not shown) ? 184 to 186 °C

May I ask what melting point has been recorded for N#Cc1ccc(C2CC(=O)N(CC3CC3)Cc3cncn32)cc1 (stereo not shown) ? 178 to 180 °C

May I ask what melting point has been recorded for CC1(c2ccc(C#N)cc2)C(=O)N(Cc2ccccc2)Cc2cncn21.Cl (stereo not shown) ? 230 to 232 °C

May I ask what melting point has been recorded for Cl.N#Cc1cccc(C2C(=O)N(Cc3ccc(F)cc3)Cc3cncn32)c1 (stereo not shown) ? 260 to 263 °C

May I ask what melting point has been recorded for O=C1Cn2cncc2CN1Cc1ccc(F)cc1 ? 112 to 114 °C

---

Listed here are compounds together with their documented melting point.

Solved cases below.
COMPOUND	melting point
COc1ccc(CN2Cc3cncn3C(c3ccc(-c4ccsc4)cc3)C2=O)cc1 (stereo not drawn)	162 to 164 °C
Cl.O=C1C(c2cccc(Br)c2)n2cncc2CN1CCc1ccc(Cl)cc1 (stereo not drawn)	225 to 226 °C
Cl.O=C1C(c2ccc(Br)cc2)n2cncc2CN1CCc1ccc(F)cc1 (stereo not drawn)	136 to 138 °C

May I ask what melting point has been recorded for Cc1ccc(CN2Cc3cncn3CC2=O)cc1 ? 105 to 108 °C

May I ask what melting point has been recorded for CC1(c2ccc(C#N)cc2)C(=O)N(Cc2ccc(F)cc2)Cc2cncn21 (stereo not drawn) ? 66 to 70 °C

May I ask what melting point has been recorded for O=C1N(Cc2ccc(F)cc2)Cc2cncn2C1(Cc1ccccc1)c1ccc(Br)cc1 (stereo not drawn) ? 166 to 168 °C

---

Listed here are compounds together with their documented melting point.

Solved cases below.
COMPOUND	PARAMETER MEASURED	RECORDED RESULT
O=C(O)C(=O)O.O=C1C(c2cccc(Br)c2)n2cncc2CN1C1CCCCC1 (stereo not drawn)	melting point	129 to 131 °C
COc1ccc(CN2Cc3cncn3C(c3ccc(C#N)cc3)C2=O)cc1 (stereo not drawn)	melting point	155 to 157 °C
N#Cc1cccc(C2C(=O)N(Cc3ccccc3)Cc3cncn32)c1 (stereo not drawn)	melting point	163 to 165 °C

May I ask what melting point has been recorded for Cc1ccc(CN2Cc3cncn3C(c3cccc(Br)c3)C2=O)cc1.Cl (stereo not drawn) ? 265 to 267 °C

May I ask what melting point has been recorded for COc1ccc(CN2Cc3cncn3C(c3cccc(C#N)c3)C2=O)cc1.Cl (stereo not drawn) ? 246 to 248 °C

May I ask what melting point has been recorded for Cl.N#Cc1cccc(C2C(=O)N(Cc3ccc(Cl)cc3)Cc3cncn32)c1 (stereo not drawn) ? 236 to 238 °C

May I ask what melting point has been recorded for CC(C)N1Cc2cncn2C(c2ccc(C#N)cc2)C1=O (stereo not drawn) ? 122 to 124 °C

May I ask what melting point has been recorded for Cc1ccc(CN2Cc3cncn3C(c3ccc(C#N)cc3)C2=O)cc1 (stereo not drawn) ? 168 to 170 °C

May I ask what melting point has been recorded for Cl.O=C1C(c2cccc(Br)c2)n2cncc2CN1CCc1ccccc1 (stereo not drawn) ? 205 to 207 °C

May I ask what melting point has been recorded for O=C1C(c2cccc(Br)c2)n2cncc2CN1Cc1cccnc1 (stereo not drawn) ? 50 to 54 °C

May I ask what melting point has been recorded for Cl.N#Cc1ccc(C2C(=O)N(Cc3ccc(C(F)(F)F)cc3)Cc3cncn32)cc1 (stereo not drawn) ? 234 to 236 °C

May I ask what melting point has been recorded for Cl.O=C1C(c2cccc(Br)c2)n2cncc2CN1Cc1cccc(C(F)(F)F)c1 (stereo not drawn) ? 246 to 248 °C

May I ask what melting point has been recorded for Cl.O=C1C(c2cccc(Br)c2)n2cncc2CN1Cc1cccs1 (stereo not drawn) ? 233 to 235 °C

May I ask what melting point has been recorded for N#Cc1ccc(C2(Cc3ccccc3)C(=O)N(Cc3ccccc3)Cc3cncn32)cc1 (stereo not drawn) ? 246 to 248 °C

May I ask what melting point has been recorded for Cl.N#Cc1ccc(C2C(=O)N(Cc3cccc(C(F)(F)F)c3)Cc3cncn32)cc1 (stereo not drawn) ? 250 to 252 °C
